- System: MDA-MB-468 breast
- experimentalDetails: NCI tumour cell line growth inhibition, 48 h
readoutKind: TGI (µM)
Supply the numeric figure in µM, leaving out any unit text.

Solved entries (count: 2):
C[C@@H]1CC[C@@H]2[C@@H]1[C@H](OC(=O)/C=C/c1ccccc1)[C@]1(c3ccccc3)C[C@@H](OC(=O)CO)[C@@]2(C)O1
29
Oc1ccccc1/C=N/Nc1ccc2ccccc2n1
14.8

We next turn to a different compound, shown below.
Incoming: Looking for the measured TGI of N#CC(=C1SCS1)[N+](=O)[O-] , can you help?
Outgoing: 0.846

----------
TGI for assorted compounds
- System: MDA-MB-468 breast
- experimentalDetails: NCI tumour cell line growth inhibition, 48 h
I'd appreciate it if you wrote the number followed by its unit.

CN=C(N)N/N=C(\c1ccccc1)c1ccc(Br)cc1
1.08 µM

Incoming: Hi! What's the reported TGI for Cc1nn(-c2ccc(F)cc2)c2ncnc(Nc3ccc(NC(=O)Nc4ccc(Cl)c(C(F)(F)F)c4)cc3)c12 on MDA-MB-468 breast?
Outgoing: 4.54 µM

Incoming: Quick check: TGI on MDA-MB-468 breast, item CNC(=O)c1ccccc1CC1(O)c2ccccc2Oc2ccccc21 ?
Outgoing: 20.5 µM

Incoming: Return TGI measured with MDA-MB-468 breast given this compound: O=c1cc(-c2cccc(F)c2)[nH]c2cc3c(cc12)OCO3
Outgoing: 45.2 µM

----------
- Tested on: MDA-MB-468 breast
- experimentalDetails: NCI tumour cell line growth inhibition, 48 h
readoutKind: GI50

Observe how each entry below is paired with its result.
CC(C)(C)c1cc(O)c(O)c(C(C)(C)C)c1
2140 nM
O=C(Nc1nc2ccccc2s1)OCC(F)(F)F
> 100000 nM
Cc1cc2nc3c4cc(Cl)ccc4n(CCN(C)C)c3nc2cc1C
1410 nM

Incoming: Data request, read-out GI50, for COc1cc2c3c(cccc3c1)C(=O)N(CCN1CCCC1)C2=O
Outgoing: 1320 nM

Incoming: If you can, please state the reported GI50 value of Clc1ccccc1C(c1ccccc1)(c1ccccc1)n1ccnc1 .
Outgoing: 1770 nM

Incoming: Which GI50 reading was recorded for the compound COc1ccc(C(=S)N2CCN(c3cccc(Cl)c3)CC2)cc1 ?
Outgoing: 32300 nM

Incoming: Which measured GI50 value corresponds to Cc1ccc2c(C(C[N+](=O)[O-])c3cccs3)c(-c3ccccc3)[nH]c2c1 (centres undefined) ?
Outgoing: 820 nM

Incoming: Data request, read-out GI50, for N#CC(=C1SCS1)[N+](=O)[O-]
Outgoing: 249 nM

Incoming: Consider the compound shown here: O=C(Nc1cccc(-n2ccc3c(NC(=O)c4ccccc4)nccc32)c1)c1cccc(C(F)(F)F)c1 What is its recorded GI50?
Outgoing: 29.5 nM

----------
- Tested on: MDA-MB-468 breast
- experimentalDetails: NCI tumour cell line growth inhibition, 48 h
Recorded GI50 for the following compounds

Answered cases to consult:
COc1cccc(/C=C/C(=O)c2cc3c(N)c(C(=O)Nc4ccccc4C)sc3nc2C)c1
0.887 µM
CN1CCN(Cc2ccc(C(=O)Nc3cncc(C#Cc4cnc(N)c5ccccc45)c3)cc2C(F)(F)F)CC1
1.77 µM
CCn1c(-c2nonc2N)nc2c(C#CCN)ncc(OCCCN)c21
> 25 µM
COC1(C(=O)N2Cc3nc(Cl)nc(N[C@H](C)c4cc(N)cc(C(F)(F)F)c4)c3C2)CCOCC1
4.44 µM

Now take the following compound into account.
Incoming: Quick one: GI50 of COc1ccc(-c2nn(-c3cccc(Cl)c3)cc2C2CC(c3ccccc3)=NN2C(C)=O)cc1 (stereo not given) ?
Outgoing: 16.3 µM
